target: human, KCNT1 (Homo sapiens (Human)); test: FLIPR Tl/K Flux Assay; settings: HEK293 cells stably expressing human KCNT1; Tl+ flux stimulated with EC80 of agonist Loxapine
pIC50: −log10 of the molar value.
Observable: pIC50

Q: pIC50 lookup needed for COc1cc(C(=O)N[C@H]2CCn3nc(-c4cc(OC)ncc4F)cc32)ccn1 [Compound I-560a] , thanks.
Ans: > 6.60

---

molecular target: human, KCNT1 (Homo sapiens (Human)); test: FLIPR Tl/K Flux Assay; conditions: HEK293 cells stably expressing human KCNT1; Tl+ flux stimulated with EC80 of agonist Loxapine
pIC50: −log10 of the molar value.
The compounds listed here are annotated with their pIC50.

The examples below pair each entry with its known result.
COc1cc(-c2nc3c(o2)[C@@H](NC(=O)c2cc(Cl)cc(Cl)c2)CCC3)c(F)cn1 [Compound I-174a] :: > 6.60
O=C(N[C@H]1CCn2nc(-c3ccnc(C(F)(F)F)c3)cc21)C12CC(F)(C1)C2 [Compound I-489a] :: > 6.60
N#Cc1c(C(=O)N[C@H]2CCCn3nc(-c4ccnc(C(F)(F)F)c4)cc32)ncn1CC(F)(F)F [Compound I-425a] :: < 6.00
COc1cc(C(=O)N[C@@H]2CCCCn3nc(-c4cc(C(F)(F)F)ncc4F)cc32)ccn1 [Compound I-517b] :: 6.00 to 6.30
CCc1cc(C#N)cc(C(=O)N[C@H]2CCCCn3nc(-c4ccnc(C(F)(F)F)c4)cc32)c1 [Compound I-244a] :: > 6.60
COc1cc(-c2cc3n(n2)CCC[C@@H]3NC(=O)c2cccc(C#N)c2)c(C)cn1 [Compound I-222a] :: > 6.60

Okay, now this compound:
Q: Any idea what its pIC50 is? The compound is CC(F)(F)c1cc(-c2nc3c(o2)CCCC3NC(=O)c2cn(C(F)(F)F)nc2C(F)F)ccn1 (single isomer, unassigned)
Ans: > 6.60

---

molecular target: human, KCNT1 (Homo sapiens (Human), UniProt Q5JUK3); assay: FLIPR Tl/K Flux Assay; details: HEK293 cells stably expressing human KCNT1; Tl+ flux stimulated with EC80 of agonist Loxapine
Sequence (Q5JUK3 whole entry): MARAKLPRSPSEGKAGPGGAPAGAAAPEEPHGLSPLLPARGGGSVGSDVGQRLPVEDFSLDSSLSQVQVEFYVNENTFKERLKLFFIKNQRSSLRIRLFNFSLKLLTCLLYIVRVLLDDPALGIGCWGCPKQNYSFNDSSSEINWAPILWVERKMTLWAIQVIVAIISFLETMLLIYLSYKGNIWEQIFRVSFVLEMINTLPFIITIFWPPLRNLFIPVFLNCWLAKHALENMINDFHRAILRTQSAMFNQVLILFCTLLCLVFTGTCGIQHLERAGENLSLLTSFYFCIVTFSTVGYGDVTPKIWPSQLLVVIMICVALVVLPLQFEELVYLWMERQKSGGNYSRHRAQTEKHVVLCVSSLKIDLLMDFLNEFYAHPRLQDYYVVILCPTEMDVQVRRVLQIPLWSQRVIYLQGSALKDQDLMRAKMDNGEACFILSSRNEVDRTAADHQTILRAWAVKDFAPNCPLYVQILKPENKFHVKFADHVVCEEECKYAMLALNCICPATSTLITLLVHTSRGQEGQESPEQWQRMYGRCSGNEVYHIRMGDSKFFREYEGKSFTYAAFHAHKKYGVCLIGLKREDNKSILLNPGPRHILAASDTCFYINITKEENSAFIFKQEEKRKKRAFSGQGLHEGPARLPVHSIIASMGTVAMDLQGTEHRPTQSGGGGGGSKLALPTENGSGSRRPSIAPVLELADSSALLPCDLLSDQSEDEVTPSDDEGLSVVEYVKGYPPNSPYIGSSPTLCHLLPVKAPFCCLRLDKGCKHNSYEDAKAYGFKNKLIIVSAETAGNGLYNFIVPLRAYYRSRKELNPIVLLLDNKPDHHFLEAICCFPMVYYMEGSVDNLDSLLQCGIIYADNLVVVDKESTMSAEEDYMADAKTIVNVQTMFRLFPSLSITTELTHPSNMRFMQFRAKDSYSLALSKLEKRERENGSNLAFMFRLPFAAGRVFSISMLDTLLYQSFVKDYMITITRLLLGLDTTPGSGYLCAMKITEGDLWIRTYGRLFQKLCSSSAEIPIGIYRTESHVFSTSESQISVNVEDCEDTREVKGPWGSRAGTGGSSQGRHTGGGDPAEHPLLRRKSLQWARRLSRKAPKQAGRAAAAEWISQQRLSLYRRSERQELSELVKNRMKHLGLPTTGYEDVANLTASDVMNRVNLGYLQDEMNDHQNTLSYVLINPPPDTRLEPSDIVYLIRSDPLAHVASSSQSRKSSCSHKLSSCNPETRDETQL
Each entry below carries its recorded IC50.

Take a look at these entries with their results.
Cn1nc(C(F)(F)F)nc1C(=O)N[C@H]1CCCCn2nc(-c3ccnc(C(F)(F)F)c3)cc21 [Compound I-324a] :: < 250 nM
COc1ccccc1C(=O)N[C@@H]1CCc2nn(-c3ccnc(C(F)(F)F)c3)cc21 [Compound I-94b] :: > 1000 nM
Cn1nc(C(F)(F)F)cc1C(=O)NC1CCCc2nn(-c3ccn(C)c(=O)c3)cc21 (racemic) :: > 1000 nM
O=C(N[C@@H]1CCCc2nc(-c3ccnc(C(F)(F)F)c3)oc21)c1cncc(C(F)(F)F)n1 [Compound I-510b] :: > 1000 nM
COc1cc(-c2nc3c(o2)CCC[C@H]3NC(=O)c2cncc(C(F)(F)F)n2)ccn1 [Compound I-471b] :: 500 to 1000 nM
CCOc1cc(-n2cc3c(n2)CC[C@@H]3NC(=O)c2cc(F)cc(F)c2)ccn1 [Compound I-337a] :: < 250 nM

For the next question, use this compound.
Q: Quick check: IC50 of Cn1nc(C(F)(F)F)nc1C(=O)N[C@H]1CCCc2oc(-c3cc(C4CC4)ncc3F)nc21 [Compound I-191a] ?
Ans: < 250 nM

---

biological target: human, KCNT1 (Homo sapiens (Human), UniProt Q5JUK3); assay: FLIPR Tl/K Flux Assay; format: cell-based; conditions: HEK293 cells stably expressing human KCNT1; Tl+ flux stimulated with EC80 of agonist Loxapine
pIC50: −log10 of the molar value.
Observable: pIC50

O=C(N[C@H]1CCc2nn(-c3ccnc(C(F)(F)F)c3)cc21)C1CCC(F)(F)CC1 [Compound I-106a] :: > 6.60
O=C(N[C@@H]1CCc2nn(-c3ccnc(C(F)(F)F)c3)cc21)c1cc(F)cc(F)c1 [Compound I-100b] :: < 6.00
Cc1cc(-c2cc3n(n2)CCC[C@@H]3NC(=O)c2cc(C(F)(F)F)nn2C)cc(C)n1 [Compound I-433a] :: < 6.00
COc1cc(-c2cc3n(n2)CCC[C@@H]3NC(=O)c2cc(F)cc(C#N)c2)ccn1 [Compound I-313a] :: > 6.60

Q: Given COc1cc(-c2cc3n(n2)CC[C@@H]3NC(=O)c2ccc(F)c(C#N)c2)ccn1 [Compound I-257a] , state its recorded pIC50.
Ans: > 6.60

Q: Which measured pIC50 value corresponds to CCOc1cc(-n2cc3c(n2)CCCC3NC(=O)c2ccc3ccccc3c2)ccn1 (racemic) ?
Ans: 6.00 to 6.30

---

target: human, KCNT1 (Homo sapiens (Human)); assay: FLIPR Tl/K Flux Assay; details: HEK293 cells stably expressing human KCNT1; Tl+ flux stimulated with EC80 of agonist Loxapine
pIC50: −log10 of the molar value.
Recorded pIC50, one value per entry.

N#Cc1cccc(C(=O)N[C@H]2CCCn3nc(-c4ccnc(C5CC5)c4)cc32)c1 [Compound I-449a] :: > 6.60
CC(C)(C)CC(=O)N[C@H]1CCc2nn(-c3ccnc(C(F)(F)F)c3)cc21 [Compound I-103a] :: > 6.60

Q: GET /values?readout=pIC50&item= O=C(N[C@H]1CCn2nc(-c3ccnc(C4CC4)c3)cc21)C12CC(C(F)(F)F)(C1)C2 [Compound I-494a]
Ans: > 6.60

Q: Give its pIC50 value. Item: CC1(C)C[C@H](NC(=O)c2cccc(C#N)c2)c2cc(-c3ccnc(C(F)(F)F)c3)nn2C1 [Compound I-220a]
Ans: 6.30 to 6.60

---

In this section, each of the compounds is paired with its reported IC50.
target: human, KCNT1 (Homo sapiens (Human), UniProt Q5JUK3); assay: FLIPR Tl/K Flux Assay; conditions: HEK293 cells stably expressing human KCNT1; Tl+ flux stimulated with EC80 of agonist Loxapine

Example results:
Cn1nc(C(F)(F)F)cc1C(=O)N[C@H]1CCCc2nn(-c3ccnc(C(=O)O)c3)cc21 [Compound I-88a] :: > 1000 nM
O=C(NC1CCCc2nn(-c3ccnc(C(F)(F)F)c3)cc21)c1ccncc1 (racemic) :: > 1000 nM
Cn1nc(C(F)(F)F)cc1C(=O)N[C@H]1CCCn2nc(-c3ccnc(C(C)(F)F)c3)cc21 [Compound I-379a] :: < 250 nM

Q: Which measured IC50 value corresponds to CC(F)(F)c1cc(-c2nc3c(o2)CCC[C@@H]3NC(=O)c2cncc(F)c2)ccn1 [Compound I-544a] ?
Ans: < 250 nM

Q: Bench note: what IC50 did O=C(N[C@H]1CCCn2nc(-c3ccnc(C(F)(F)F)c3)cc21)c1cnn(C(F)(F)F)c1 [Compound I-399a] show?
Ans: < 250 nM

Q: Name the recorded IC50 for COc1cc(-c2cc3n(n2)CCC[C@@H]3NC(=O)c2cccc(C#N)c2)c(Cl)cn1 [Compound I-239a] .
Ans: < 250 nM

Q: Fill in: IC50 of Cc1nc(C(F)(F)F)oc1C(=O)N[C@H]1CCCn2nc(-c3ccnc(C(F)(F)F)c3)cc21 [Compound I-125a] is ___
Ans: < 250 nM

Q: Fill in the blank: the reported IC50 of Cc1cnc(C(F)(F)F)cc1-c1cc2n(n1)CC[C@H]2NC(=O)c1nc(C(F)(F)F)nn1C [Compound I-482b] is ____.
Ans: 500 to 1000 nM

Q: So what's the measured IC50 for this one? COc1cc(-c2nc3c(o2)[C@@H](NC(=O)c2ccnc(OC(F)(F)F)c2)CCC3)ccn1 [Compound I-135a]
Ans: < 250 nM

Q: // returns reported IC50 for input Cn1nc(C(F)(F)F)cc1C(=O)N[C@H]1CCn2nc(-c3ccnc(C(C)(F)F)c3)cc21 [Compound I-537a]
Ans: < 250 nM

Q: Which measured IC50 value corresponds to Cc1cc(-c2cc3n(n2)CCC[C@@H]3NC(=O)c2cc(C(F)(F)F)nn2C)cc(C2CC2)n1 [Compound I-315a] ?
Ans: < 250 nM

Q: Given O=C(N[C@H]1CCCc2oc(-c3ccnc(C(F)(F)F)c3)nc21)c1cnn(C(F)(F)F)c1C(F)(F)F [Compound I-531a] , state its recorded IC50.
Ans: < 250 nM

Q: # get_value(readout='IC50', item= Cn1nc(C(F)(F)F)cc1C(=O)N[C@H]1CCc2ncc(-c3ccnc(C(F)(F)F)c3)cc21 [Compound I-460a] )
Ans: > 1000 nM

Q: For the compound shown here, O=C(N[C@H]1CCCc2nc(-c3ccnc(C4CC4)c3)oc21)c1cccc(OC(F)(F)F)c1 [Compound I-170a] , give the reported IC50.
Ans: < 250 nM

Q: What value of measured IC50 is listed for COc1cc(-c2nc3c(o2)[C@@H](NC(=O)c2cc(Cl)cc(Cl)c2)CCC3)ccn1 [Compound I-150a] ?
Ans: < 250 nM

Q: What measured IC50 goes with O=C(N[C@H]1CCCn2nc(-c3ccnc(C(F)(F)F)c3)cc21)c1cnn(C(F)(F)F)c1C(F)(F)F [Compound I-529a] ?
Ans: < 250 nM

Q: May I ask what IC50 has been recorded for COc1cc(-c2cc3n(n2)CCCC[C@@H]3NC(=O)c2cc(F)cc(C#N)c2)c(F)cn1 [Compound I-183a] ?
Ans: < 250 nM

Q: I'd like to know its IC50. The compound in question is Cn1nc(C(F)(F)F)nc1C(=O)N[C@H]1CCCn2nc(-c3ccnc(C(F)(F)F)c3)cc21 [Compound I-326a]
Ans: < 250 nM

Q: May I ask what IC50 has been recorded for Cn1nc(C(F)(F)F)cc1C(=O)NC1CCCCc2nn(-c3ccnc(C(F)(F)F)c3)cc21 (racemic) ?
Ans: < 250 nM

Q: Returns the measured IC50 for the input compound. Input: CC(F)(F)c1cc(-c2cc3n(n2)CC[C@@H]3NC(=O)c2cnn(C(F)(F)F)c2)ccn1 [Compound I-538a]
Ans: < 250 nM
